B1: library; numbered along this chain (parent)
chain: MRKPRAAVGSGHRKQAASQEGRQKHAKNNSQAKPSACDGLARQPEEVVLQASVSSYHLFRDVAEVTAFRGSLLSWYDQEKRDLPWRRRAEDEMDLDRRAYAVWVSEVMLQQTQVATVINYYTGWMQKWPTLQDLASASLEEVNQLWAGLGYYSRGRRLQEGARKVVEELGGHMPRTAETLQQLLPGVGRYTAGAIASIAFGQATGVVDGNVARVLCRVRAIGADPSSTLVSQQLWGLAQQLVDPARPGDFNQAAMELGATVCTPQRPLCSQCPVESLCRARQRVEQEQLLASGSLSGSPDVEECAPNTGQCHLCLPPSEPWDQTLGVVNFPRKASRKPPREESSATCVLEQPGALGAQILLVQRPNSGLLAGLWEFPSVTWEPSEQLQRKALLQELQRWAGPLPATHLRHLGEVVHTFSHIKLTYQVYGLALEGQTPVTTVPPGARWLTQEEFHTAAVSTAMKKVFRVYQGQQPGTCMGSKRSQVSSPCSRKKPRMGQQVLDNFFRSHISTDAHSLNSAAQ

variants of: B1; assay: 8OG:A repair function score (normalized; synonymous = 0, nonsense = -1) (normalized log-likelihood score); higher = more repair activity (WT-like); conditions: with 8OG:A DNA repair reporter (GFP) in HEK-293 MUTYH KO cells;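 further: cells sorted at 72 h after reporter transfection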
Classify as follows. Reported 8OG:A repair function score greater than or equal to -0.1: criterion met. Reported 8OG:A repair function score below: criterion not met.

Check if 8OG:A repair function score >= -0.1 (inclusive). Item: `V65P`
criterion not met

Check the entry `G401I` : does 8OG:A repair function score equal or exceed -0.1?
criterion not met

Test whether the variant `N143E` records 8OG:A repair function score of -0.1 or higher.
criterion not met

Decide: 8OG:A repair function score of `G209H` >= -0.1?
criterion not met

Form field: 8OG:A repair function score at least -0.1? Entry: `P377C`
criterion not met

Reported 8OG:A repair function score reaches at least -0.1 for `T511M` ?
criterion met

I'd appreciate it if you could say whether `L268G` has 8OG:A repair function score at least equal to -0.1.
criterion met

Check this variant for 8OG:A repair function score at or above -0.1: `D300A`
criterion not met

Does the variant `E302T` have recorded 8OG:A repair function score that is -0.1 or more?
criterion not met

Check if 8OG:A repair function score >= -0.1 (inclusive). Item: `L501M`
criterion met

Reference for the values: the supplement of paper PMC11908140
